Source listed as patent EP0638553A1.

The following compounds are listed with their measured IC50 values.
System: Humanthrombozyten
MEASUREMENT DESCRIPTION: Inhibition of the binding of ³H-BIBU 52 to human platelets (fibrinogen binding test)
REPORTED CONDITIONS: displacement of ³H-BIBU 52 (5 nM) from human platelets in plasma, 20 min at room temperature; read-out: Fibrinogen-Bindungstest IC₅₀
# value in µM; strip the unit string

>  <COMPOUND>
O=C(O)CC1CCN(C(=O)c2ccc(CCC34CCN(CC3)CC4)cc2)CC1

>  <ENDPOINT UNIT>
µM

>  <IC50>
0.36

$$$$

Give the reported value of IC50 for this record: NCCOc1ccc(C(=O)N[C@H]2CC[C@H](OCC(=O)O)CC2)cc1
0.84

For the compound CCCCS(=O)(=O)NC1(C(=O)O)CCC(NC(=O)N2CCC(OCC3CCNCC3)CC2)CC1 (stereo not drawn) , give its reported IC50.
1.5

Complete the entry with IC50 for NC1(C(=O)O)CCC(NC(=O)N2CCC(OCC3CCNCC3)CC2)CC1 (stereo not drawn)
0.13

###

Tested on: Humanthrombozyten
MEASUREMENT DESCRIPTION: Inhibition of the binding of ³H-BIBU 52 to human platelets (fibrinogen binding test)
REPORTED CONDITIONS: displacement of ³H-BIBU 52 (5 nM) from human platelets in plasma, 20 min at room temperature; read-out: Fibrinogen-Bindungstest IC₅₀
READOUT NAME: IC50 (µM)
# output: bare number, implied unit µM

Below: 3 compounds and their reported IC50.
>  <STRUCTURE SMILES>
NCCOc1ccc(C(=O)N[C@H]2CC[C@H](CCC(=O)O)CC2)cc1

>  <SYSTEM>
Humanthrombozyten

>  <ENDPOINT UNIT>
µM

>  <VAL>
0.13

$$$$
>  <STRUCTURE SMILES>
O=C(N[C@H]1CC[C@H](C(=O)O)CC1)c1cccc(CCC23CCN(CC2)CC3)c1

>  <SYSTEM>
Humanthrombozyten

>  <ENDPOINT UNIT>
µM

>  <VAL>
0.55

$$$$
>  <STRUCTURE SMILES>
O=C(N[C@H]1CC[C@H](C(=O)O)CC1)c1ccc(OCC2CCNCC2)cc1

>  <SYSTEM>
Humanthrombozyten

>  <ENDPOINT UNIT>
µM

>  <VAL>
0.19

$$$$

Given O=C(O)CN(CCNC(=O)N1CCC(OCC2CCNCC2)CC1)CC(=O)O , respond with its IC50.
6.9

Tell us which IC50 value is on record for O=C(N[C@H]1CC[C@H](C(=O)O)CC1)N1CCC(OCC2CCNCC2)CC1
0.091

###

Test system: Humanthrombozyten
MEASUREMENT DESCRIPTION: Inhibition of the binding of ³H-BIBU 52 to human platelets (fibrinogen binding test)
REPORTED CONDITIONS: displacement of ³H-BIBU 52 (5 nM) from human platelets in plasma, 20 min at room temperature; read-out: Fibrinogen-Bindungstest IC₅₀
READOUT NAME: pIC50
Keep in mind that pIC50 stands for -log10 of concentration in molar terms.

>  <MOLECULE>
O=C(N[C@H]1CC[C@H](C(=O)O)CC1)N1CCC(COC2CCNCC2)CC1 [3(16)]

>  <pIC50>
6.80

$$$$

Name the recorded pIC50 of the item COC(=O)[C@H]1CC[C@H](NC(=O)N2CCC(OCC3CCNCC3)CC2)CC1 [4(23)] in your answer.
6.74

Please give measured pIC50 of the following entry: O=C(N[C@H]1CC[C@H](C(=O)O)CC1)c1ccc(CCc2ccncc2)cc1 [3(30)]
5.92

Supply pIC50 value. Item: O=C(O)CCC1CCN(C(=O)c2ccc(NCC3CCNCC3)cc2)CC1 [3(7)]
4.31

Tell me measured pIC50 for O=C(N[C@H]1CC[C@H](C(=O)O)CC1)c1ccc(OCC23CCN(CC2)CC3)cc1 [Beispiel 3] please.
7.07
